assayed-system: Recombinant human his-tagged IGF R extracellular domain protein (human) (UniProt P08069)
assay-name: SPR, Ab captured via anti-huIgG Fc, dissociation at pH 6
measured-attribute: koff (s⁻¹)
The answer is to be given in s⁻¹; state only the numeric part.

Here are 2 binders together with their reported answers.
[[record]]
binder = "VRDN-02059 (antibody, V domains shown) VH: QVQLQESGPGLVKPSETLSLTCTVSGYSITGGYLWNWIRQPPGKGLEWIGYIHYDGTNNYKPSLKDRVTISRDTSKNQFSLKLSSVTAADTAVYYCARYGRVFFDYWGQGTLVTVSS VL: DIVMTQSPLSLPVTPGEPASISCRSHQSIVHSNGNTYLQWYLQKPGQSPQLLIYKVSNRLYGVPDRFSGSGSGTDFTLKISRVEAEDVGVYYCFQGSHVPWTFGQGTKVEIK"
observed_result = "4.43e-05"

[[record]]
binder = "VRDN-02029 (antibody, V domains shown) VH: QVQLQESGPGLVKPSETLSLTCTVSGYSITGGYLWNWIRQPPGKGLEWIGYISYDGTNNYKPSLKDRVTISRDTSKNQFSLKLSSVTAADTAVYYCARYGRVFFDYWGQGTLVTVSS VL: DIVMTQSPLSLPVTPGEPASISCHSSQSIVHSNGNTYLQWYLQKPGQSPQLLIYKVSNRLYGVPDRFSGSGSGTDFTLKISRVEAEDVGVYYCFQGSHVPWTFGQGTKVEIK"
observed_result = "9.38e-05"


What koff value was documented for this binder, VRDN-02003 (antibody, V domains shown) VH: QVQLQESGPGLVKPSETLSLTCTVSGYHITGGYLWNWIRQPPGKGLEWIGYISYDGTNNYKPSLKDRVTISRDTSKNQFSLKLSSVTAADTAVYYCARYGRVFFDYWGQGTLVTVSS VL: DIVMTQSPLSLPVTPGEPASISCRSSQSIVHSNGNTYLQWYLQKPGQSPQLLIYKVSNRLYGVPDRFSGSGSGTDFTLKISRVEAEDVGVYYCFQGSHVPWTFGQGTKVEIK ?
9.44e-05
